# System: SH-SY5Y cells
# test_parameters: PKIS2 primary screening, DQ Red BSA spot count
endpoint_name: DQ Spot

Reference set (6 entries):
compound	recorded_value
Cl.c1ccc(-c2ccc3c(Nc4ccc5[nH]ccc5c4)ccnc3c2)nc1 [UNC10225345A]	42.49
N#Cc1ccc(-c2cc(-c3c[nH]nc3-c3ccccn3)ccn2)cc1 [UNC10225072A]	75.50
FC(F)(F)c1ccc(-c2ncn(CCCN3CCOCC3)c2-c2ccncc2)cc1 [UNC10225425A]	77.10
Fc1cc(Cl)ccc1Nc1ccnc2cc(-c3ccc(CN4CCCCC4)o3)ccc12 [UNC10225220A]	129.26
Nc1ncc(-c2ccc3nccc(-c4ccncc4)c3c2)cc1S(=O)(=O)N1CCOCC1 [UNC10225011A]	94.12
Cl.Oc1cccc(Nc2ccnc3cc(-c4ccncc4)ccc23)c1 [UNC10225467A]	51.42

Attention now turns to another entry.
[in] Recorded DQ Spot of COc1cccc(NC(=O)NCCNc2ccnc(Nc3ccc(F)cc3)n2)c1 , please.
[out] 112.84

---

# System: SH-SY5Y cells
# procedure_details: AK (adenylate kinase) release ToxiLight cytotoxicity assay
# test_parameters: PKIS2 primary screening
The label depends only on AK: yes (1) if it is at least 100, no (0) if it is smaller.

Solved entries:
molecule	class_name
CC(C)N1CCC(n2cnc(-c3ccc(F)cc3)c2-c2ccnc(N)n2)CC1 [UNC10225258A]	yes (1)
COc1cccc(NC(=O)NCCNc2ccnc(Nc3ccc(F)cc3)n2)c1	no (0)
Cc1ccc(NC(=O)Nc2cc(C(C)(C)C)nn2-c2ccccc2)cc1 [UNC10225353A]	no (0)
O=C(Nc1ccc(Oc2ccc3nc(NC(=O)c4ccco4)[nH]c3c2)cc1)Nc1cc(C(F)(F)F)ccc1F	no (0)
Cc1c(Cn2c3ccccc3n3c(=O)cc(N4CCOCC4)nc23)cccc1C(F)(F)F [UNC10225195A]	no (0)

[in] Determine whether measured AK meets or exceeds 100 for CN(C)c1ncnc2nc[nH]c12 [UNC10243858A]
[out] no (0)

[in] Now give it for CC(C)c1nc(-c2cccc(NS(=O)(=O)c3c(F)cccc3F)c2F)c(-c2ccnc(Nc3ccc(N4CCOCC4)nc3)n2)s1 [UNC10224991A] too.
[out] no (0)

[in] Now give it for COc1ccc(-n2cnc3c(N)ncnc32)cc1 [UNC10225413A] too.
[out] no (0)

[in] Now give it for CN1C(=O)C(Nc2cc(Cl)c(O)c(Cl)c2)=C(c2ccc(Cl)cc2)C1=O [UNC10225212A] too.
[out] yes (1)

---

# System: SH-SY5Y cells
# procedure_details: AK (adenylate kinase) release ToxiLight cytotoxicity assay
# test_parameters: PKIS2 primary screening
The label depends only on AK: condition met if it is at least 80, condition not met if it is smaller.

Solved entries:
compound	class_name
O=c1cc(N2CCOCC2)nc2n(Cc3cccc(C(F)(F)F)c3)ccn12 [UNC10225024A]	condition met
CCCc1ccc(S(=O)(=O)NC2CCN(c3ccnc(Nc4ccc(OC)cc4)n3)C2)cc1 (centres unmarked)	condition met
COc1cccc(C2=C(N(C)c3ccccc3)C(=O)NC2=O)c1 [UNC10225293A]	condition not met
OCCCNc1nccc(-c2c(-c3cccc(C(F)(F)F)c3)nn3cc(C(F)(F)F)ccc23)n1 [UNC10225352A]	condition met
COc1cc(Nc2nccc(N3CCC(NC(=O)Nc4cccc(C(C)=O)c4)C3)n2)cc(OC)c1OC (centres unmarked)	condition met

Then this compound:
[in] Determine whether measured AK meets or exceeds 80 for CN(c1ccc(NC(=O)N2CCN(CCCN3CCOCC3)CC2)cc1)c1ccnc(Nc2ccc(CS(C)(=O)=O)cc2)n1
[out] condition not met
